measuredTarget: GalNAc3S(b1-4)[Fuc(a1-3)]GlcNAc
experimentNotes: glycan array binding signal (z-score within array); higher = stronger binding
runConditions: glycan notation: IUPAC condensed, linker removed
This is one part of a sample in which the strongest signals are shown more often than they occur.
measureName: glycan array binding signal (z-score)
Answer with the value's number alone.

Q: Please give the documented glycan array binding signal (z-score) of SP8524D-bot-399-27-399 (Bacteroides ovatus) (protein) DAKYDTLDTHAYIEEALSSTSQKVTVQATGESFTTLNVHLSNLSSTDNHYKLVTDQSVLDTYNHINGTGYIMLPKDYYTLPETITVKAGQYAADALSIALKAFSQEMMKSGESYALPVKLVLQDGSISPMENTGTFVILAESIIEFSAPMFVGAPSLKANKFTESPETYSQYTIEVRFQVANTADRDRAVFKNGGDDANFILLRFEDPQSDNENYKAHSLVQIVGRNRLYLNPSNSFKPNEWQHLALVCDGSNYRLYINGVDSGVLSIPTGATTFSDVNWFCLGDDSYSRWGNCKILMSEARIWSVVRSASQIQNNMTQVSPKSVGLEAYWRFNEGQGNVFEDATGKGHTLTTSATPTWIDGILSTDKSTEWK
A: 0.563

Q: Please indicate glycan array binding signal (z-score) recorded for LysMD3 (Homo sapiens), Q7Z3D4 (protein) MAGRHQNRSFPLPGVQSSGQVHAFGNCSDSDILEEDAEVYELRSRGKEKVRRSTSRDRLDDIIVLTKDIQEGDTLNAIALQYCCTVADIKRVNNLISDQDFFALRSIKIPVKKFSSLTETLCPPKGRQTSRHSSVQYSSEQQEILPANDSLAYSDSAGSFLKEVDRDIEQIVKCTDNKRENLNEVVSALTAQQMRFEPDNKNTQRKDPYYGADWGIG
A: -0.424

Q: Identify the reported glycan array binding signal (z-score) for the following entry. MpAFP NterminalRI GFP (Marinomonas primoryensis) (protein) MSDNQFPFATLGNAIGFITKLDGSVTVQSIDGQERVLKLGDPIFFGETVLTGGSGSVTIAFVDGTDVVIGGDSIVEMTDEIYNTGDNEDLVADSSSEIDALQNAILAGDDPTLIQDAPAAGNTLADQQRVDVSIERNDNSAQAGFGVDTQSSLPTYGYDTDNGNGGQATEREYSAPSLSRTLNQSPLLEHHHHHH
A: -0.39

Q: Please give measured glycan array binding signal (z-score) of the following entry: AMA (Arum maculatun) (protein) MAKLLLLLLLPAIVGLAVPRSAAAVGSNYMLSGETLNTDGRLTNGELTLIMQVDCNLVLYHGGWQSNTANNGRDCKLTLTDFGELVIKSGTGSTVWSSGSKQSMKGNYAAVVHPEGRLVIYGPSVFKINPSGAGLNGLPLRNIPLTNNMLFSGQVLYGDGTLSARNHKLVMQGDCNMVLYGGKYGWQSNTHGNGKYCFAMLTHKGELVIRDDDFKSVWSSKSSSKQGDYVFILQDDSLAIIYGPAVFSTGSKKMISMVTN
A: -0.216

Q: Give a short answer stating reported glycan array binding signal (z-score) for Si Bti9 1b-V5-his (Solanum lycopersicum) (protein) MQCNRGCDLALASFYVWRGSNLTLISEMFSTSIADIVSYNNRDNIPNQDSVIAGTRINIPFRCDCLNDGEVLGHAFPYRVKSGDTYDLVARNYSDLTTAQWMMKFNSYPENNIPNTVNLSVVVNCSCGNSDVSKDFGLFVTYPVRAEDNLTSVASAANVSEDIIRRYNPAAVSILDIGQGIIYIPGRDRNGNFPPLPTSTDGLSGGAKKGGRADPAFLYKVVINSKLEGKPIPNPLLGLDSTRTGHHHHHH .
A: 4.72

Q: State its glycan array binding signal (z-score): EULS2 M3 (Oryza sativa) (protein) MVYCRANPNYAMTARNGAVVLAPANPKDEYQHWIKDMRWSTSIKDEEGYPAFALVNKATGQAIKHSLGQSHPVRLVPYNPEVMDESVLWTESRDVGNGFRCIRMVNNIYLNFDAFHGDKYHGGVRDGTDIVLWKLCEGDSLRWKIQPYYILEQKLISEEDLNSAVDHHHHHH
A: -0.623

Q: Quickly give me recorded glycan array binding signal (z-score) for XTP3-B-MRH2 (Homo sapiens), Q96DZ1 (protein) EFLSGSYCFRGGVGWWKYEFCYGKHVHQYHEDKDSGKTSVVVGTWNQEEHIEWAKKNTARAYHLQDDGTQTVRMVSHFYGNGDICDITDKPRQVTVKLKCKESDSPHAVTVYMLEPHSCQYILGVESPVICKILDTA
A: 0.236

Q: Item Mermaid1 (Stilbonema majum) (protein) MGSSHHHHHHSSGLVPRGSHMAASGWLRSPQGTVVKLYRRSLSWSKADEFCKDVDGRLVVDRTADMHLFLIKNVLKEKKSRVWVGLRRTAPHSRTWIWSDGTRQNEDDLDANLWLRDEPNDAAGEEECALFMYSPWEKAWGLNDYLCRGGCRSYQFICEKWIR : provide glycan array binding signal (z-score)
A: 0.714

Q: Quickly give me recorded glycan array binding signal (z-score) for CrataBL (Crataeva tapia), C0HJA4 (protein) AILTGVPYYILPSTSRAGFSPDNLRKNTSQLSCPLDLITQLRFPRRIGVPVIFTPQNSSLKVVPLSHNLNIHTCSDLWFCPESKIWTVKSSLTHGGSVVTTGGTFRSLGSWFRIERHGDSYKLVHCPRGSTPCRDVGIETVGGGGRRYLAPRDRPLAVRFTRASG
A: 0.423

Q: Look up and state reported glycan array binding signal (z-score) for DC-ASGPR-short (Homo sapiens) (protein) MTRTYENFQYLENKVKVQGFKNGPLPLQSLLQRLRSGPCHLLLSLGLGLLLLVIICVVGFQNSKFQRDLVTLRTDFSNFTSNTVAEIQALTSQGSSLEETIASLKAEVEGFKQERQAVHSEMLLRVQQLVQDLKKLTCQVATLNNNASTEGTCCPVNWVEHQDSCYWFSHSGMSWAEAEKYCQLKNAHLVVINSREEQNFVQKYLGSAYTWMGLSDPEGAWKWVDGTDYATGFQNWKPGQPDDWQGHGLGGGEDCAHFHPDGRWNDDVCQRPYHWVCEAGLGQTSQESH
A: -0.256
